- Test system: Epstein-Barr virus (EBV), Akata strain
- Parameters: unit not given beside the values
Reported SI50 values follow for various compounds

INSERT INTO results (compound, result) VALUES
  ('CC(C)(C)C(=O)SCCOP(=O)(OCCSC(=O)C(C)(C)C)OCC1=CC(O)C(n2ccc(=O)[nH]c2=O)O1 (stereo not shown) [SATE-ddhU]', '<4'),
  ('C[C@H](Cn1cnc2c(N)ncnc21)OCP(=O)(O)O [TNV, reference compound]', '>3'),
  ('CC(C)(C)C(=O)SCCOP(=O)(OCCSC(=O)C(C)(C)C)OCC1=CC(O)C(n2cnc3c(=O)[nH]cnc32)O1 (stereo not shown) [SATE-ddhI]', '>8');

Lab note: next compound to report on.
Enquiry: Record Nc1ccn(C[C@@H](CO)OCP(=O)(O)O)c(=O)n1 [CDV, Cidofovir, reference compound] : what is its SI50 with Epstein-Barr virus (EBV), Akata strain?
Return: >11
